# Tested on: MDA-MB-435
# measurement.description: NCI 60 growth inhibition
# Format: cell-based, human
# condition.set: Homo sapiens; MDA-MB-435, Melanoma, Table 2
What GI50 was measured for each of the following?
Returns: string containing the numeric result and its unit.

The following compounds have reported results that may help.
| item.smiles | result |
| --- | --- |
| C=C1C(=O)O[C@H]2[C@H]1CC/C(Cn1cc(-c3ccc(OC)cc3)nn1)=C\CC[C@@]1(C)O[C@@H]21 | 1.14 µM |
| C=C1C(=O)O[C@H]2[C@H]1CC/C(Cn1cc(-c3ccc(F)cc3)nn1)=C\CC[C@@]1(C)O[C@@H]21 | 1 µM |

Give me GI50 for each of these compounds, listed below.
1. C=C1C(=O)O[C@H]2[C@H]1CC/C(Cn1cc(CCC)nn1)=C\CC[C@@]1(C)O[C@@H]21
2. C=C1C(=O)O[C@H]2[C@H]1CC/C(Cn1cc(-c3cccc(Cl)c3)nn1)=C\CC[C@@]1(C)O[C@@H]21
3. C=C1C(=O)O[C@H]2[C@H]1CC/C(Cn1cc(-c3cc(C(F)(F)F)cc(C(F)(F)F)c3)nn1)=C\CC[C@@]1(C)O[C@@H]21
4. C=C1C(=O)O[C@H]2[C@H]1CC/C(Cn1cc(-c3ccccc3)nn1)=C\CC[C@@]1(C)O[C@@H]21

1. 10.4 µM
2. 0.59 µM
3. 0.74 µM
4. 2.37 µM
